Reported values of melting point for individual entries

In the examples that follow, each entry is paired with its recorded melting point.
# molecule, melting point
data = [
    ("CN(C)CC1=C(c2cc3cc(F)ccc3s2)C2CCC(C1)C2.Cl (racemic)", "207.4 to 211.1 °C"),
    ("COc1cccc2sc(C3=C(CN(C)C)C4CCC3C4)cc12.Cl (racemic)", "239 to 242 °C"),
    ("CN(C)CC1=C(c2ccc3sccc3c2)C2CCC(C1)C2.Cl (stereo not shown)", "57.8 °C"),
    ("CNCC1=C(c2ccc3scc(C)c3c2)C2CCC(C1)C2.Cl (stereo not shown)", "204.5 to 206.7 °C"),
    ("COc1cccc2cc(C3=C(CN(C)C)C4CCC3C4)sc12.Cl (racemic)", "232 to 235 °C"),
]

I have this molecule here, CN(C)CC1=C(c2cccc3sccc23)C2CCC1C2 (racemic) , and I need its recorded melting point. 73.5 to 76.9 °C

# get_value(readout='melting point', item= Cc1cc2cc(C3=C(CN(C)C)C4CCC3C4)ccc2s1.Cl (racemic) ) 179.5 to 181.6 °C

Reference for the values: patent US20040030131A1
